Attribution: PubChem BioAssay (NCI)

Examples of compounds with documented TGI follow.
- System: NCI-H226 lung
- Assay method text: NCI tumour cell line growth inhibition, 48 h
Field: numeric (µM). Do not append units.

COC(=O)C1C(C(=O)O)C2(c3ccccc3)C(=O)C1(c1ccccc1)C(c1ccccc1)=C2c1ccccc1 (centres undefined) | 66
C=C1C(=O)O[C@H]2[C@H]1CC/C(COC(=O)c1cccnc1N)=C\CC[C@@]1(C)O[C@@H]21 | 24.4
O=C(/C=C/c1ccccc1)c1cccc2ccccc12 | 6.32

# next compound below
Ask: Any idea what TGI came out for "COc1cccc(Nc2ncnc3cc(NC(=O)CCl)ccc23)c1" on NCI-H226 lung?
Reply: 4.55
